- Target under test: Caspase-6 (Homo sapiens) (UniProt P55212)
- Sequence (P55212 24-179 limits assumed): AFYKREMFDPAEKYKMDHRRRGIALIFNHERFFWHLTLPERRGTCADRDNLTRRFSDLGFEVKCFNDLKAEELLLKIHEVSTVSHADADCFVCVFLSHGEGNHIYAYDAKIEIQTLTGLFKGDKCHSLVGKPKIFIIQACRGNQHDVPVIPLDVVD
- Sequence (P55212 194-293 limits assumed): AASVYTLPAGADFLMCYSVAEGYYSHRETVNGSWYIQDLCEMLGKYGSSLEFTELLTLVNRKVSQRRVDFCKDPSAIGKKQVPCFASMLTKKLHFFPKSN
- Procedure details: human caspase-6 inhibitors, primary screen, biochemical, VEID-R110 fluorescence, single point, set 2 (AID 686996);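 further: 0% = median of neutral control wells and 100% = no fluorescence left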
- Particulars: purified caspase-6, Z-VEID-R110 cleavage fluorescence; at 12.5 µM; active compounds read high
Hit rate of the full screen: of about 350,000 compounds, about 1,900 (0.54%) were called active. The sample holds actives, similar compounds and a random draw of the others, so the mix is not that of the screen.
Readout: inhibition (%)
Answers are plain numbers, in %.

Here are 6 compounds together with their reported answers.
[
  {
    "Compound": "CC(C(=O)NC1CCS(=O)(=O)C1)N1C(=O)/C(=C/c2ccc(Cl)cc2)SC1=S (stereo not given)",
    "inhibition, %": 4.77
  },
  {
    "Compound": "O=C(CCS(=O)(=O)c1ccc(Br)cc1)NCCc1ccc(Cl)cc1",
    "inhibition, %": 49
  },
  {
    "Compound": "Cc1ccc(S(=O)(=O)CCC(=O)OCC(=O)NCCc2ccc(S(N)(=O)=O)cc2)cc1",
    "inhibition, %": 1.6
  },
  {
    "Compound": "Cc1ccccc1-c1ccc2c(c1)O[C@H](CN(C)Cc1ccc(C(=O)O)cc1)[C@@H](C)CN([C@H](C)CO)S2(=O)=O",
    "inhibition, %": -3.25
  },
  {
    "Compound": "COc1ccc(S(=O)(=O)N(C)C[C@H]2Oc3c(NC(=O)CCCCCC(=O)Nc4ccccc4N)cccc3C(=O)N([C@H](C)CO)C[C@H]2C)cc1",
    "inhibition, %": -1.7
  },
  {
    "Compound": "Oc1ccc(N=Cc2c(O)ccc3ccccc23)cc1",
    "inhibition, %": 36.4
  }
]

For every listed record, write down its inhibition.
1. CCOc1ccc(CCN2C(=O)c3cccnc3C2=O)cc1OCC
2. Cc1cc(/C=C2/SC(=O)N(CC(=O)OC(C)C)C2=O)c(C)n1C
3. C[C@@H](O)C#Cc1cnc2c(c1)C(=O)N([C@@H](C)CO)C[C@H](C)[C@@H](CN(C)CC1CCCCC1)O2
4. C[C@@H]1CCCCO[C@H](CN(C)S(=O)(=O)c2ccc(Cl)cc2)[C@H](C)CN([C@H](C)CO)C(=O)c2cc(NC(=O)NC3CCCCC3)ccc2O1
5. O=C(C[C@H]1CC[C@H]2[C@@H](COC[C@@H](O)CN2CC2CCOCC2)O1)NCc1ccc(Cl)cc1
6. COc1ccc(Cl)cc1NC(=O)CCS(=O)(=O)c1ccc(Br)cc1

Result:
1. 3.27
2. 1.11
3. 2.32
4. -2.73
5. -3.23
6. 87.9

====

- Target under test: Caspase-6 (Homo sapiens)
- Procedure details: human caspase-6 inhibitors, primary screen, biochemical, VEID-R110 fluorescence, single point, set 2 (AID 686996);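 further: 0% = median of neutral control wells and 100% = no fluorescence left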
- Particulars: purified caspase-6, Z-VEID-R110 cleavage fluorescence; at 12.5 µM; active compounds read high
Hit rate of the full screen: of about 350,000 compounds, about 1,900 (0.54%) were called active. For the sample, actives were picked, then their nearest neighbours and some compounds at random.
So I've got a bunch of compounds here, and I need their inhibition values.
Give bare numbers, in %.

[
  {
    "Compound": "O=C(C[C@H]1CC[C@H]2[C@@H](COC[C@H](O)CN2S(=O)(=O)c2cccc(F)c2)O1)NC1CCC1",
    "Numeric value": 0.605
  },
  {
    "Compound": "C[C@@H]1CN([C@@H](C)CO)C(=O)c2cc(NC(=O)Nc3ccc4c(c3)OCO4)ccc2O[C@@H](C)CCCCO[C@@H]1CN(C)S(=O)(=O)c1cccs1",
    "Numeric value": -0.287
  }
]

For every listed record, write down its inhibition.
1. C[C@@H]1CN([C@@H](C)CO)C(=O)Cc2cc(NS(C)(=O)=O)ccc2O[C@H]1CN(C)C(=O)Nc1ccccc1
2. CN(CCOc1ccccc1)C(=O)c1cc(-c2ccco2)nc2ccccc12
3. COc1ccc(CN(C)C[C@H]2OCCCC[C@@H](C)Oc3ccc(NS(C)(=O)=O)cc3C(=O)N([C@@H](C)CO)C[C@H]2C)cc1

Result:
1: 2.54; 2: 4.78; 3: -2.66

====

- Target under test: Caspase-6 (Homo sapiens)
- Procedure details: human caspase-6 inhibitors, primary screen, biochemical, VEID-R110 fluorescence, single point, set 2 (AID 686996);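 further: 0% = median of neutral control wells and 100% = no fluorescence left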
- Particulars: purified caspase-6, Z-VEID-R110 cleavage fluorescence; at 12.5 µM
Among all 350,000 compounds or so, about 1,900 (0.54%) were called active.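 Rule for the calls: active = mean inhibition across replicates at least about 35%, with every replicate also reaching that limit (limit read from the data); inconclusive = only one of the two criteria met; inactive = neither criterion met.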 Shown is part of a subset that was picked to be rich in actives.
Hi! Could you answer with just one of these? 1 (yes) (active), 0 (no) (inactive)

[
  {
    "Smiles string": "O=C(NNC(=O)c1cc(S(=O)(=O)N2CCCCC2)ccc1Cl)c1ccccc1O",
    "Target under test": "Caspase-6 (Homo sapiens)",
    "Assigned category": "0 (no)"
  }
]

Ask: Answer briefly: the call reported for O=C(O)CCC(=O)NCc1ccc2[nH]c3c(c2c1)CCCC3 in this assay.
Result: 1 (yes)

Ask: Answer briefly: the call reported for COc1ccc2c3c([nH]c2c1)[C@@H](CO)N(S(C)(=O)=O)CC31CN(CC2CC2)C1 in this assay.
Result: 0 (no)

Ask: Answer briefly: the call reported for Cc1cccc(NC(=S)NCc2ccc3[nH]c4c(c3c2)CCCC4)c1 in this assay.
Result: 0 (no)

Ask: Answer briefly: the call reported for CC(C)NC(=O)N(C)C[C@H]1Oc2ccc(NS(C)(=O)=O)cc2CC(=O)N([C@@H](C)CO)C[C@H]1C in this assay.
Result: 0 (no)

Ask: Answer briefly: the call reported for C[C@H](CO)N1C[C@H](C)[C@H](CN(C)CC2CCCC2)Oc2ncc(Br)cc2C1=O in this assay.
Result: 0 (no)

Ask: Answer briefly: the call reported for O=C(NC(=O)N1CCOCC1)c1ccccc1 in this assay.
Result: 0 (no)

Ask: Answer briefly: the call reported for O=C(CCC(=O)c1ccccc1)NCc1cccc(C(F)(F)F)c1 in this assay.
Result: 0 (no)

Ask: Answer briefly: the call reported for CC(=O)N(C1=C(Cl)C(=O)c2ccccc2C1=O)c1ccc(C(=O)O)cc1 in this assay.
Result: 1 (yes)

Ask: Answer briefly: the call reported for COC(=O)c1cccc(NC(=O)c2cccc(N3C(=O)CCC3=O)c2)c1 in this assay.
Result: 1 (yes)

Ask: Answer briefly: the call reported for CN1C(=O)c2cc(NC(=O)C3CC3)ccc2OC[C@@H]2O[C@@H](CC(=O)NCC3CCCCC3)CC[C@@H]21 in this assay.
Result: 0 (no)

Ask: Answer briefly: the call reported for O=C(NNC(=O)c1ccccc1O)c1ccccc1O in this assay.
Result: 1 (yes)

Ask: Answer briefly: the call reported for O=C1C(Cl)=C(Oc2ccccc2)C(=O)c2ccccc21 in this assay.
Result: 0 (no)

Ask: Answer briefly: the call reported for CCOC(=O)c1ccc(NC(=O)c2c(NCc3ccccc3)[nH]c(=O)[nH]c2=O)cc1 in this assay.
Result: 0 (no)

Ask: Answer briefly: the call reported for CCOC(=O)c1ccc(Nc2cc3ccccc3c(=O)[nH]2)cc1 in this assay.
Result: 1 (yes)

Ask: Answer briefly: the call reported for Cc1oc2c(c1C(=O)N1CCOCC1)C(=O)c1ccccc1C2=O in this assay.
Result: 1 (yes)

Ask: Answer briefly: the call reported for C#CCNc1ccc(C(=O)OCC)cc1 in this assay.
Result: 0 (no)

====

So I've got a bunch of molecules here, and I need their inhibition values.
- Target under test: Caspase-6 (Homo sapiens)
- Procedure details: human caspase-6 inhibitors, primary screen, biochemical, VEID-R110 fluorescence, single point, set 2 (AID 686996);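 further: 0% = median of neutral control wells and 100% = no fluorescence left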
- Particulars: purified caspase-6, Z-VEID-R110 cleavage fluorescence; at 12.5 µM; active compounds read high
About 1,900 (0.54%) of roughly 350,000 compounds were called active. The sample as a whole holds a higher share of actives than the screen did.
One number for each entry, in %.

[
  {
    "Molecule": "COc1ccc(Br)cc1/C=N/Nc1ccc(S(=O)(=O)Nc2ccccc2C(=O)O)cc1[N+](=O)[O-]",
    "Numeric value": 49.3
  },
  {
    "Molecule": "Cc1cc(C(=O)CCC(=O)NNC(=O)c2ccccc2O)c(C)s1",
    "Numeric value": 4.5
  }
]

For every listed record, write down its inhibition.
1. COc1ccc(S(=O)(=O)N2CCC(C(=O)OCC(=O)c3ccccc3)CC2)cc1[N+](=O)[O-]
2. COc1ccc(CN(C)C[C@@H]2Oc3ccc(NC(=O)Nc4ccc(F)cc4)cc3CC(=O)N([C@@H](C)CO)C[C@H]2C)cc1
3. O=C1OC(/C=C/c2ccccc2)=NC/1=C/c1ccco1
4. C[C@@H]1CCCCO[C@@H](CN(C)S(=O)(=O)c2ccccc2)[C@@H](C)CN([C@@H](C)CO)C(=O)c2cc(NS(=O)(=O)c3cn(C)cn3)ccc2O1
5. O=S(=O)(c1ccccc1)N1CC[C@@H]2[C@@H](CO)Nc3ccc(-c4ccccc4F)cc3[C@@H]21
6. CC1CN(C(=O)c2ccccc2NS(=O)(=O)c2cccc([N+](=O)[O-])c2)CC(C)O1 (stereo not drawn)

Result:
1. -8.89
2. 3.48
3. 38.7
4. 2.27
5. -0.847
6. 0.082
